The compounds listed here are annotated with their IC50 at 5 days.
test: in vitro
reportedConditions: mouse

- compound: "O=c1cc(-c2ccccc2)oc2cc(OCCN(Cc3ccccc3)Cc3cn(CCOCCOc4ccc(-c5cc(=O)c6cc(F)ccc6o5)cc4)nn3)ccc12 [Ac16Az7]"
  IC50 at 5 days: "> 100 µM"
- compound: "O=c1cc(-c2ccccc2)oc2cc(OCCCCc3cn(CCOCCOc4ccc(-c5cc(=O)c6cc(F)ccc6o5)cc4)nn3)ccc12 [Ac12Az7]"
  IC50 at 5 days: "> 100 µM"
- compound: "Cc1ccc2oc(-c3ccc(OCCCCc4cn(CCOCCOc5ccc(-c6cc(=O)c7ccccc7o6)cc5)nn4)cc3)cc(=O)c2c1 [Ac5Az1]"
  IC50 at 5 days: "> 57 µM"
- compound: "O=c1cc(-c2ccccc2)oc2cc(OCCCCc3cn(CCOCCOc4ccc5c(=O)cc(-c6ccccc6)oc5c4)nn3)ccc12 [Ac12Az11]"
  IC50 at 5 days: "> 100 µM"
- compound: "COCOc1cc(OCc2ccccc2)c2c(=O)cc(-c3ccc(OCCCc4cn(CCOCCOc5ccc(-c6cc(=O)c7ccccc7o6)cc5)nn4)cc3)oc2c1 [Ac4Az1]"
  IC50 at 5 days: "< 12.1 µM"
- compound: "O=c1cc(-c2ccc(OCCOCCOCCn3cc(CCCCOc4ccc5c(=O)cc(-c6ccccc6)oc5c4)nn3)cc2)oc2ccccc12 [Ac12Az2]"
  IC50 at 5 days: "> 50 µM"
